Molecular target: T1, human DR3 with the death domain deleted (ΔM339-P417 of SEQ ID NO:1), expressed on CHOK1SV cells (human, UniProt Q93038 25-338)
T1 construct: also called truncated DR3; hDR3 expressing CHO cells
T1 sequence: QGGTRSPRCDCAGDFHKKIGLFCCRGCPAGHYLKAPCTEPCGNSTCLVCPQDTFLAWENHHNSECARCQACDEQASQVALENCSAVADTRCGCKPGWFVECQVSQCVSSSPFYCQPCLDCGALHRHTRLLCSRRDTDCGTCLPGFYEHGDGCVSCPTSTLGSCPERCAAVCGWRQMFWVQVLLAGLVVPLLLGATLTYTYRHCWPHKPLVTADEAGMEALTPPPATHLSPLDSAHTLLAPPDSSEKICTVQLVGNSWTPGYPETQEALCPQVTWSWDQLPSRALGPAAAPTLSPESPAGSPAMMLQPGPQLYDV
Experiment: flow cytometry competition: Fab vs TL1A on hDR3-expressing CHO cells
METRIC: pIC50
The scale used: pIC50 is minus the common logarithm of the concentration in molar units.

Given the binder 0152 (chimeric Fab of 50F191, human IgG4 constant domain, hinge Cys->Ser) (Fab, V domains shown, IgG4-Ser, chimeric) VH: EVQLVESGGGLVEPGGSLKLSCAASGFTFSTYAMSWVRQSPEKRLEWVAEISSGDSYTYYPDIVTGRFTISRDDAKNTLFLEMSSLRSEDTAIYYCVRDQDYRYDGYYAMDHWGQGTSVTVSS VL: DIVLTQSPASLAVSLGQRATISCRASESVEHYGTSLMQWYQQKPGQPPKLLIYAASNVESGVPARFSGRGSGPDFSLNIHPVEEDDIAMYFCQQSRRIPWTFGGGTKLEIKR , what is its reported pIC50?
9.29

Given the binder 0228 (humanized Fab of 27F44, IgG4, hz0072VH S49A / hz0072VL) (Fab, V domains shown, IgG4-Cys, hz (humanized IgG4 Fab with the hinge cysteine kept)) VH: EVQLVESGGGLVQPGGSLRLSCAASGFTFSNYDMSWVRQATGKGLEWVAAFSSDGYTFYPGSVKGRFTISRENAKNSLYLQMNSLRAGDTAVYYCARHADYANYPVMDYWGQGTLVTVSS VL: DIQMTQSPSSLSASVGDRVTITCRASKSVSTSGYSYMHWYQQKPGKAPKLLIYLASNLESGVPSRFSGSGSGTDFTLTISSLQPEDFATYYCQHSRELPLTFGGGTKVEIKR , what is its reported pIC50?
9.32

Given the binder 0122 (chimeric Fab of 27F16, human IgG4 constant domain, hinge Cys->Ser) (Fab, V domains shown, murine variable domains, human IgG4 constant domain (IgG4-Ser), human kappa) VH: EVQLVESGGDFVKPGGSLKLSCAASGFTFNNYGMSWVRQTPDKRLEWVAAISSGVTYTYYPDTVKGRFTISRDNAKNTLYLHMSSLKSEDTAMYYCGRHDDYGNHFDYWGQGTTLTVSS VL: DIVMTQSPSSLAMSLGQRVTMNCKSSQSLLNSHNQKNYLAWYQQKPGQSPKLLVYFASSRESGVPDRFIGSGSGTDFTLTISSVQAEDLADYFCQQHYSTPFTFGSGTKLEIKR , what is its reported pIC50?
8.29
